Where these numbers come from: ChEMBL document CHEMBL4765270

Target: Sigma non-opioid intracellular receptor 1 (Cavia porcellus)
Sequence (Q60492 whole entry): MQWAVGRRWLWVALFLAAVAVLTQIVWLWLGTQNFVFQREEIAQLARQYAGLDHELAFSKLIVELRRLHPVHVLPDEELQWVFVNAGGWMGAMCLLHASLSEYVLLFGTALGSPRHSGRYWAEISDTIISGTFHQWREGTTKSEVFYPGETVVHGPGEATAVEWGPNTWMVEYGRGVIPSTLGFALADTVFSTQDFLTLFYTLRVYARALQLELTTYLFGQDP
Assay: Displacement of [3H]-(+)-pnetazocin from sigma1 receptor in guinea pig brain membrane incubated for 150 mins by liquid scintillation counting method
Hi! Could you tag entries with Ki below 0.02 µM as Fulfilled, and those at or above as Not fulfilled? Much appreciated.

> print(dat)
                                smiles.entry          group
 1  CCC(=O)N(CCN1CCC(Cc2ccccc2)CC1)c1ccc(OC)cc1      Fulfilled
 2  CCC(=O)N(CCN1CCC(CCCc2ccccc2)CC1)c1ccc(OC)cc1  Not fulfilled
 3  CCC(=O)N(CCN1CCC(c2ccccc2)CC1)c1ccc(OC)cc1  Not fulfilled
 4  CCC(=O)N(CCN1CCC(Cc2ccccc2)CC1)c1cc(F)c(F)c(F)c1  Not fulfilled
 5  CCC(=O)N(CCN1CCC(Cc2ccccc2)CC1)Cc1ccccc1      Fulfilled
 6  CCC(=O)N(CCN1CCC(Cc2ccc(C)cc2)CC1)c1ccc(OC)cc1  Not fulfilled
 7  CCC(=O)N(CCN1CCC(Cc2ccc(C)cc2)CC1)c1ccc(C)cc1  Not fulfilled
 8  CCC(=O)N(CCN1CCC(Cc2ccc(F)cc2)CC1)c1ccc(F)cc1      Fulfilled
 9  CCC(=O)N(CCCN1CCC(Cc2ccccc2)CC1)c1ccc(OC)cc1      Fulfilled
10  CCC(=O)N(CCN1CCC(Cc2ccc(F)cc2)CC1)c1ccc(OC)cc1      Fulfilled
11  CCC(=O)N(CCN1CCC(Cc2ccc(C)cc2)CC1)c1ccc(F)cc1  Not fulfilled
